Test system: 422866-222-R5-J1-PDC spheroids with HUVEC/MSC, viability;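 also: spheroids exposed to compounds for seven days before reading; percent viability relative to DMSO vehicle control taken as 100%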
protocolNotes: Anticancer human tumor 422866-222-R5-J1-PDC patient-derived pancreatic adenocarcinoma cell line growth inhibition [GQUAD]
assayConditions: second compound 0.1 µM; first compound 0.316 µM; hits give low values
Task for the reader: assign each of the following molecules its reported viability, T/C.

Solved entries (count: 3):
C#Cc1c(F)ccc2cc(O)cc(-c3ncc4c(N5CC6CCC(C5)N6)nc(OCC56CCCN5CC(F)C6)nc4c3F)c12 (centres undefined) + CN(C)c1ccc(Nc2c3ccc(NC(=O)CCN4CCCC4)cc3nc3cc(NC(=O)CCN4CCCC4)ccc23)cc1 ... 89.6%
CC(=O)O[C@H]1C(=O)[C@@]2(C)[C@H]([C@H](OC(=O)c3ccccc3)[C@]3(O)C[C@H](OC(=O)[C@H](O)[C@@H](NC(=O)c4ccccc4)c4ccccc4)C(C)=C1C3(C)C)[C@]1(OC(C)=O)CO[C@@H]1C[C@@H]2O + Cc1[nH]c2ccc(F)cc2c1-c1nc2c3cccnc3c3ncccc3c2[nH]1 ... 100%
CCCS(=O)(=O)Nc1ccc(F)c(C(=O)c2c[nH]c3ncc(-c4ccc(Cl)cc4)cc23)c1F + Cc1cnc(CNC(=O)c2c(=O)c3ccc(N4CCCN(C)CC4)nc3n3c2sc2ccccc23)cn1 ... 115%

For the next question, use this molecule.
Noted for COc1cccc2c1C(=O)c1c(O)c3c(c(O)c1C2=O)CC(O)(C(=O)CO)CC3OC1CC(N)C(O)C(C)O1 (centres undefined) + Cc1[nH]c2ccc(F)cc2c1-c1nc2c3cccnc3c3ncccc3c2[nH]1 : its viability, T/C reads 69.2%
